- System: 699152-130-R-J1-PDC complex spheroid viability;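 note: spheroids exposed to agents for 7 days before viability reading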
- procedure-details: Anticancer human tumor 699152-130-R-J1-PDC patient-derived pancreatic carcinoma cell line growth inhibition [POLQ]
- condition-info: curve of first compound; second compound 1 µM
- Procedure: Multicellular complex tumor spheroid response to Polymerase (POL) inhibitors (novobiocin, ART-558, RP6685) in combination with a variety of drugs and investigational agents in selected tumor cell lines The POL inhibitors (novobiocin, ART-558, and RP6685) were evaluated both individually and in combination with standard of care and investigational anticancer small molecules within a complex spheroid model of solid tumors. . […]
pIC50: −log10 of the molar value.
Would you mind telling me the reported pIC50 of each entry?

compound	readout-label	result
C=CCn1c(=O)c2cnc(Nc3ccc(N4CCN(C)CC4)cc3)nc2n1-c1cccc(C(C)(C)O)n1 + Nc1ccc(C#CCN(C(=O)Cc2ncc(C(F)(F)F)cc2C(F)(F)F)c2ccc(F)cc2)nn1	pIC50	< 6.00
COc1cc2cc(C(=O)CCC(=O)O)sc2cc1OC + COC1C(OC(N)=O)C(O)C(Oc2ccc3c(O)c(NC(=O)c4ccc(O)c(CC=C(C)C)c4)c(=O)oc3c2C)OC1(C)C	pIC50	< 5.00
CCc1cc2c(N3CCc4c(cc(Cn5ccnc5)cc4-c4cn(C)nc4C(F)(F)F)C3=O)cc(C)nc2c(OC)n1 + COC1C(OC(N)=O)C(O)C(Oc2ccc3c(O)c(NC(=O)c4ccc(O)c(CC=C(C)C)c4)c(=O)oc3c2C)OC1(C)C	pIC50	< 5.00
CC1COCCN1c1cc(C2(S(C)(=N)=O)CC2)nc(-c2ccnc3[nH]ccc23)n1 (stereo unspecified) + Cc1cccc(N(C)C(=O)C2C(O)CCN2c2nc(C)cc(C(F)(F)F)c2C#N)c1	pIC50	< 5.00

// batch mode: one pIC50 value per listed entry
1. COc1cccc2c1C(=O)c1c(O)c3c(c(O)c1C2=O)CC(O)(C(=O)CO)CC3OC1CC(N)C(O)C(C)O1 (stereo unspecified) + COC1C(OC(N)=O)C(O)C(Oc2ccc3c(O)c(NC(=O)c4ccc(O)c(CC=C(C)C)c4)c(=O)oc3c2C)OC1(C)C
2. O=C(Nc1ccc(O)c(NS(=O)(=O)c2ccc(F)cc2)c1)c1ccc(-c2ccccc2)cc1 + Cc1cccc(N(C)C(=O)C2C(O)CCN2c2nc(C)cc(C(F)(F)F)c2C#N)c1
3. CCc1cc2c(N3CCc4c(cc(Cn5ccnc5)cc4-c4cn(C)nc4C(F)(F)F)C3=O)cc(C)nc2c(OC)n1 + Cc1cccc(N(C)C(=O)C2C(O)CCN2c2nc(C)cc(C(F)(F)F)c2C#N)c1
4. O=c1[nH]cc(F)c(=O)[nH]1 + Cc1cccc(N(C)C(=O)C2C(O)CCN2c2nc(C)cc(C(F)(F)F)c2C#N)c1
5. O=c1[nH]cc(F)c(=O)[nH]1 + Nc1ccc(C#CCN(C(=O)Cc2ncc(C(F)(F)F)cc2C(F)(F)F)c2ccc(F)cc2)nn1
6. CC1COCCN1c1cc(C2(O)CC3CCC(C2)O3)c2cnn(-c3ccn[nH]3)c2n1 (stereo unspecified) + Cc1cccc(N(C)C(=O)C2C(O)CCN2c2nc(C)cc(C(F)(F)F)c2C#N)c1
7. CC[C@@]1(O)C(=O)OCc2c1cc1n(c2=O)Cc2cc3c(CN(C)C)c(O)ccc3nc2-1 + Cc1cccc(N(C)C(=O)C2C(O)CCN2c2nc(C)cc(C(F)(F)F)c2C#N)c1

-- reply
1. 6.65
2. < 5.00
3. < 5.00
4. < 5.00
5. < 5.00
6. 5.77
7. < 7.00

Cited source: PubChem BioAssay AID1963835
